# target_entity: hOGG1 (Homo sapiens, UniProt O15527)
# Sequence (O15527 12-323): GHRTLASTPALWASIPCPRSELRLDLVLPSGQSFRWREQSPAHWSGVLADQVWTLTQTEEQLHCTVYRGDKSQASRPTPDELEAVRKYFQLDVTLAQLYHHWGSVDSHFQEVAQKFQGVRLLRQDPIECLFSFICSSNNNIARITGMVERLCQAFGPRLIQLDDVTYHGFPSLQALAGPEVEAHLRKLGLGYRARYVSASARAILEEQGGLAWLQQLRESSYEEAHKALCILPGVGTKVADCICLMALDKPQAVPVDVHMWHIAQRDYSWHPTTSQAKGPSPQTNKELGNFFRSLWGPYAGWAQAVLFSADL
# protocol_details: Biochemical fluorescence assay to measure enzymatic activity of hOGG1 (OGG1/APEX IC50)
# Design: Protein His-hOGG1 (12-323) was prepared; His (N); host or cells: E. coli
# test_settings: 1 nM OGG1+2 nM APEX+6 nM dsDNA (8-oxo-dG substrate); pH 7.5; RT 40 min; read-out: OGG1/APEX IC50
property_name: IC50

As a guide, the following entries are already answered.
[[record]]
chemical_string = "CNCCOc1cc(C)c2c(c1)C(=O)N([C@H]1CC[C@@H](C(=O)Nc3ccc(C)c(OC)c3)CC1)C2"
target_entity = "hOGG1 (Homo sapiens, UniProt O15527)"
obs_value = "< 100 nM"

[[record]]
chemical_string = "COc1cc(NC(=O)[C@H]2CC[C@@H](N3Cc4c(C)ccc(O)c4NC3=O)CC2)ccc1C"
target_entity = "hOGG1 (Homo sapiens, UniProt O15527)"
obs_value = "< 100 nM"

[[record]]
chemical_string = "COc1cc(NC(=O)[C@H]2CC[C@@H](N3Cc4c(Cl)cccc4NC3=O)CC2)ccc1C"
target_entity = "hOGG1 (Homo sapiens, UniProt O15527)"
obs_value = "100 to 1000 nM"

[[record]]
chemical_string = "COc1cc(NC(=O)[C@H]2CC[C@@H](N3Cc4c(cccc4OC)NC3=O)CC2)ccc1C"
target_entity = "hOGG1 (Homo sapiens, UniProt O15527)"
obs_value = "1000 to 10000 nM"


// query Returns the measured IC50 for the input molecule. Input: COc1ccc(NC(=O)[C@H]2CC[C@@H](N3Cc4c(C)cccc4NC3=O)CC2)cc1F
// result 100 to 1000 nM

// query Input C=Cc1ccc(NC(=O)[C@H]2CC[C@@H](N3Cc4c(C)cccc4C3=O)CC2)cc1OC
// result 100 to 1000 nM

// query Input COc1cc(NC(=O)[C@H]2CC[C@@H](N3Cc4c(C)cnc(CNC(C)=O)c4NC3=O)CC2)ccc1C
// result < 100 nM

// query Input COc1ccc(NC(=O)[C@H]2CC[C@@H](N3Cc4c(C)cccc4C3=O)CC2)cc1OC
// result 100 to 1000 nM

---

Form field: IC50 (one value per entry).
# target_entity: hOGG1 (Homo sapiens)
# protocol_details: Biochemical fluorescence assay to measure enzymatic activity of hOGG1 (OGG1/APEX IC50)
# Set-up: Protein His-hOGG1 (12-323) was prepared; His (N); host or cells: E. coli
# test_settings: 1 nM OGG1+2 nM APEX+6 nM dsDNA (8-oxo-dG substrate); pH 7.5; RT 40 min; read-out: OGG1/APEX IC50

[[record]]
molecule = "COc1cc(NC(=O)[C@H]2CC[C@@H](N3Cc4c(F)cccc4C3=O)CC2)ccc1C [Example 164]"
obs_value = "1 to 10 µM"

[[record]]
molecule = "COc1cc(NC(=O)[C@H]2CC[C@@H](N3Cc4c(ccnc4Br)C3=O)CC2)ccc1C [Example 176]"
obs_value = "0.1 to 1 µM"

[[record]]
molecule = "O=C1c2cccc(Br)c2CN1[C@H]1CC[C@@H](C(=O)Nc2ccc3c(c2)OCCO3)CC1 [Example 191]"
obs_value = "1 to 10 µM"

[[record]]
molecule = "CCc1ccc(NC(=O)[C@H]2CC[C@@H](N3Cc4c(C)cccc4C3=O)CC2)cc1C#N [Example 128]"
obs_value = "0.1 to 1 µM"


// query Returns the measured IC50 for the input molecule. Input: COc1cc(NC(=O)[C@H]2CC[C@@H](N3Cc4c(C)ccc(OC5CNC5)c4NC3=O)CC2)ccc1C [Example 45]
// result < 0.1 µM

// query Input Cc1cccc2c1CN([C@H]1CC[C@@H](C(=O)Nc3ccc4nc[nH]c4c3)CC1)C(=O)N2 [Example 109]
// result 1 to 10 µM
